These entries and their values trace back to patent US5750530A.

Target: PAI-1 (Homo sapiens, UniProt P05121)
Sequence (P05121 24-402): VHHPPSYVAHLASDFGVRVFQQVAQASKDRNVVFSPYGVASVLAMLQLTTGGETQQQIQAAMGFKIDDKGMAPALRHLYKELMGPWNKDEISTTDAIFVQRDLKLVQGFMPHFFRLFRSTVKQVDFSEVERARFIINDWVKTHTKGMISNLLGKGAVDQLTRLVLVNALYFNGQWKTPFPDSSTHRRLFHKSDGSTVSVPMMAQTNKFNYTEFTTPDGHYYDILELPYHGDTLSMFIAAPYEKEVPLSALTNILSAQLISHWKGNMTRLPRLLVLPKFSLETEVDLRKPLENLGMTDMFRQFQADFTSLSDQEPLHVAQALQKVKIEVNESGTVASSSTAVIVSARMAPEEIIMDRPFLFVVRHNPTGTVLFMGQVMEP
Assay: biochemical
Type: biochemical
Conditions: PAI chromogenic substrate assay
Experimental: The present compounds have been tested in a PAI functional assay. In this assay, a compound is incubated with PAI-1 prior to addition to the tPA assay system. Inhibition of PAI-1 results in the production of plasmin from plasminogen. In turn, plasmin cleaves the chromogenic substrate S2251 (Kabi Vitrum) producing pNA (p-nitroaniline) which is detected spectrophotometrically at 405 nm (K. Nilsson et al, Fibrinolysis (1987) 1, 163-168). […]
Where a name gives a salt, the structure may show the parent alone.
quantity-name: IC50 (µM)

Here is how some compounds turned out for IC50.
INSERT INTO assay_data (compound, quantity_name, measurement) VALUES
  ('CN(C)CCSc1ccc(/C=c2\[nH]c(=O)/c(=C/c3ccccc3Br)[nH]c2=O)s1 [Compound 5313.HCl]', 'IC50', 20),
  ('COc1ccc(/C=c2\[nH]c(=O)/c(=C/c3ccc(SCCN(C)C)s3)[nH]c2=O)cc1 [Compound 5464]', 'IC50', 10.5),
  ('CN(C)CCSc1ccc(/C=c2\[nH]c(=O)/c(=C/c3ccnc4ccccc34)[nH]c2=O)s1 [Compound 5307.HCl]', 'IC50', 18),
  ('COC(=O)c1ccc(/C=c2\[nH]c(=O)/c(=C/c3ccc(SCCN(C)C)s3)[nH]c2=O)cc1 [Compound 5477]', 'IC50', 20),
  ('COC(=O)c1ccc(/C=c2\[nH]c(=O)/c(=C/c3ccc(SCCN(C)C)cc3)[nH]c2=O)cc1 [Compound 5478.HCl]', 'IC50', 16.9);

a = COc1ccc2ccccc2c1/C=c1\[nH]c(=O)/c(=C/c2ccc(SCCN(C)C)s2)[nH]c1=O [Compound 5499.HCl]
b = CSc1ccc(/C=c2\[nH]c(=O)/c(=C/c3ccc(SCCN(C)C)cc3)[nH]c2=O)cc1 [Compound 5426]
(Q) Just tell me: smaller IC50 value, a or b ? Please identify the chosen entry by its label.
(A) b

----------
molecular target: PAI-1 (Homo sapiens); experiment: biochemical; type: biochemical; conditions: 5 μm
Counter-ions that a name gives are not always drawn.
quantity-name: % Inhibition (%)

Here is how some molecules turned out for % Inhibition.
INSERT INTO assay_data (molecule, assayed_target, measurement) VALUES
  ('CN(C)CCSc1ccc(/C=c2\[nH]c(=O)/c(=C/c3ccccc3)[nH]c2=O)cc1 [Compound 5128.HCl]', 'PAI-1 (Homo sapiens)', 5),
  ('CN(C)CCSc1ccc(/C=c2\[nH]c(=O)/c(=C/c3cccnc3)[nH]c2=O)s1 [Compound 5470]', 'PAI-1 (Homo sapiens)', 1),
  ('CN(C)CCSc1ccc(/C=c2\[nH]c(=O)/c(=C/C3CCCCC3)[nH]c2=O)s1 [Compound 5454.HCl]', 'PAI-1 (Homo sapiens)', 25);

A = CN(C)CCSc1ccc(/C=c2\[nH]c(=O)/c(=C/c3ccc4c(c3)OCO4)[nH]c2=O)cc1 [Compound 5491]
B = CN(C)CCSc1ccc(/C=c2\[nH]c(=O)/c(=C/C3CCCCC3)[nH]c2=O)s1 [Compound 5454]
(Q) Just tell me: smaller % Inhibition value, A or B ? Please identify the chosen entry by its label.
(A) A

P = Cc1ccc(/C=c2\[nH]c(=O)/c(=C/c3ccc(SCCN(C)C)cc3)[nH]c2=O)cc1 [Compound 5463]
Q = COc1ccc2ccccc2c1/C=c1\[nH]c(=O)/c(=C/c2ccc(SCCN(C)C)s2)[nH]c1=O [Compound 5499]
(Q) Just tell me: smaller % Inhibition value, P or Q ? Please identify the chosen entry by its label.
(A) Q
(Q: 2%, P: 76%)

----------
molecular target: PAI-1 (Homo sapiens); assay: biochemical; type: biochemical
pIC50: −log10 of the molar value.
quantity-name: pIC50

INSERT INTO assay_data (entry_smiles, measurement) VALUES
  ('CN(C)CCSc1ccc(/C=c2\[nH]c(=O)/c(=C/c3ccc4c(c3)CCO4)[nH]c2=O)s1', 4.82),
  ('CN(C)CCSc1ccc(/C=c2\[nH]c(=O)/c(=C/c3ccc4c(c3)OCO4)[nH]c2=O)s1', 4.70);

----------
target: UniProtKB P05121; experiment: biochemical; type: biochemical; conditions: 5 μm
Counter-ions that a name gives are not always drawn.
quantity-name: % Inhibition (%)

INSERT INTO measurements (compound, measurement) VALUES
  ('CN(C)CCSc1ccc(/C=c2\[nH]c(=O)/c(=C/c3c4ccccc4cc4ccccc34)[nH]c2=O)s1 [Compound 5498.HCl]', 19);

A = CN(C)CCSc1ccc(/C=c2\[nH]c(=O)/c(=C/CC3CCCC(C)(C)C3)[nH]c2=O)s1 (stereo not shown)
B = CN(C)CCSc1ccc(/C=c2\[nH]c(=O)/c(=C/c3cccc(Br)c3)[nH]c2=O)cc1 [Compound 5425.HCl]
C = COc1ccc(/C=c2\[nH]c(=O)/c(=C/c3ccc(SCCN(C)C)s3)[nH]c2=O)cc1 [Compound 5464]
(Q) // ranking: key=% Inhibition, reverse=True In plain terms: list the labels in the order you were asked to.
(A) B, A, C
(B: 56%, A: 30%, C: 19%)

----------
target: PAI-1 (Homo sapiens, UniProt P05121); assay: biochemical; assay type: biochemical; conditions: 20 μm
Where a name gives a salt, the structure may show the parent alone.
quantity-name: % Inhibition (%)

Here is how some molecules turned out for % Inhibition.
INSERT INTO results (molecule, quantity_name, measurement) VALUES
  ('CN(C)CCSc1ccc(/C=c2\[nH]c(=O)/c(=C/c3ccoc3)[nH]c2=O)cc1 [Compound 5129.HCl]', '% Inhibition', 68),
  ('CN(C)CCSc1ccc(/C=c2\[nH]c(=O)/c(=C/c3cccc(OCc4ccccc4)c3)[nH]c2=O)s1 [Compound 5487]', '% Inhibition', 60),
  ('CC(=O)Nc1ccc(/C=c2\[nH]c(=O)/c(=C/c3ccc(SCCN(C)C)s3)[nH]c2=O)cc1 [Compound 5300]', '% Inhibition', 64),
  ('COc1ccc(/C=c2\[nH]c(=O)/c(=C/c3ccc(SCCN(C)C)cc3)[nH]c2=O)cc1 [Compound 5479.HCl]', '% Inhibition', 75),
  ('CN(C)CCSc1ccc(/C=c2\[nH]c(=O)/c(=C/c3ccc4c(c3)OCO4)[nH]c2=O)s1', '% Inhibition', 64),
  ('CN(C)CCSc1sc(/C=c2\[nH]c(=O)/c(=C/c3ccccc3)[nH]c2=O)cc1[N+](=O)[O-] [Compound 5403]', '% Inhibition', 52),
  ('COc1cc(/C=c2\[nH]c(=O)/c(=C/c3ccc(SCCN(C)C)cc3)[nH]c2=O)ccc1OCc1ccc([N+](=O)[O-])cc1 [Compound 5490]', '% Inhibition', 48),
  ('COc1cc(/C=c2\[nH]c(=O)/c(=C/c3ccc(SCCN(C)C)cc3)[nH]c2=O)ccc1OCc1ccc([N+](=O)[O-])cc1 [Compound 5490.HCl]', '% Inhibition', 66);

1 = COC(=O)c1ccc(/C=c2\[nH]c(=O)/c(=C/c3ccc(SCCN(C)C)cc3)[nH]c2=O)cc1 [Compound 5478.HCl]
2 = CN(C)CCSc1ccc(/C=c2\[nH]c(=O)/c(=C/c3ccccc3Br)[nH]c2=O)s1
(Q) Just tell me: smaller % Inhibition value, 1 or 2 ? Please identify the chosen entry by its label.
(A) 2

----------
molecular target: PAI-1 (Homo sapiens); assay: biochemical; format: biochemical; details: PAI chromogenic substrate assay
pIC50: −log10 of the molar value. Where a name gives a salt, the structure may show the parent alone.
quantity-name: pIC50

Here is how some compounds turned out for pIC50.
INSERT INTO results (compound, measurement) VALUES
  ('CN(C)CCSc1ccc(/C=c2\[nH]c(=O)/c(=C/c3ccc4ccccc4n3)[nH]c2=O)s1 [Compound 5308.HCl]', 5.35),
  ('CN(C)CCSc1ccc(/C=c2\[nH]c(=O)/c(=C/c3ccoc3)[nH]c2=O)cc1 [Compound 5129.HCl]', 5.35),
  ('COc1cccc(/C=c2\[nH]c(=O)/c(=C/c3ccc(SCCN(C)C)s3)[nH]c2=O)c1 [Compound 5314]', 5.46),
  ('CN(C)CCSc1ccc(/C=c2\[nH]c(=O)/c(=C/c3cn(C)c4ccccc34)[nH]c2=O)cc1 [Compound 5497]', 4.96),
  ('CN(C)CCSc1ccc(/C=c2\[nH]c(=O)/c(=C/CC3CCCC(C)(C)C3)[nH]c2=O)s1 (stereo not shown)', 5.19);

a = CN(C)CCSc1ccc(/C=c2\[nH]c(=O)/c(=C/c3ccccc3)[nH]c2=O)cc1[N+](=O)[O-]
b = CN(C)CCSc1ccc(/C=c2\[nH]c(=O)/c(=C/c3ccc4c(c3)OCO4)[nH]c2=O)s1 [Compound 5279.HCl]
(Q) Between a and b , whose recorded pIC50 is greater? Please identify the chosen entry by its label.
(A) a
